Data provenance is patent US7468391B2.

Kindly supply the reported IC50 values for the records listed here.
TARGET ENTITY: CYP26A (P450RAI-1) (Homo sapiens)
Construct: expressed in transfected cells; host or cells: HeLa
Sequence (O43174 whole entry): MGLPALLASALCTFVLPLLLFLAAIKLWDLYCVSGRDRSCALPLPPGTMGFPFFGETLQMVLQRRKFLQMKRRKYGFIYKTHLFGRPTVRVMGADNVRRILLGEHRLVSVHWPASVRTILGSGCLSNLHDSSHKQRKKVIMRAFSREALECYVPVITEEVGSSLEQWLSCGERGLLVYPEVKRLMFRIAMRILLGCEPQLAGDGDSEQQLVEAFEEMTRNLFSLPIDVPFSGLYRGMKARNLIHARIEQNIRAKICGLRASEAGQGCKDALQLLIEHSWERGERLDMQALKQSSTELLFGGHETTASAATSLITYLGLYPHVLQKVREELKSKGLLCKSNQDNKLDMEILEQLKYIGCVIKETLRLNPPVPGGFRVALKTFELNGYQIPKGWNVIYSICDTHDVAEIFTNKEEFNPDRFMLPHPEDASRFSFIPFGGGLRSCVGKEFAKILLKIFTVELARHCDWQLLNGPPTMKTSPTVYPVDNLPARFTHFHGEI
ASSAY COMMENT: Cell-based inhibition of RA metabolism in CYP26A stably transfected HeLa cells
ASSAY CONDITIONS: stably transfected HeLa cells, [3H]-RA, 3 hours at 37° C.; read-out: P450RAI-1 Whole cell IC50

GET /values?readout=IC50&item= "C=Cc1c(C)c(C#Cc2ccc(CC(=O)O)cc2)cc(C(C)(C)C)c1OC(C)C"
700 nM

GET /values?readout=IC50&item= "Cc1ccc(CN(C)C2CC2)cc1C#Cc1ccc(/C=C/C(=O)O)cc1"
> 10000 nM

GET /values?readout=IC50&item= COc1cc(C#Cc2ccc(CC(=O)O)c(F)c2)cc2c1C(N(C)C1CC1)CCC2(C)C (centres unmarked)
18 nM

GET /values?readout=IC50&item= "C#Cc1cc(C#Cc2ccc(CC(=O)OCOC(C)=O)c(F)c2)cc(C(=O)OC(C)C)c1"
400 nM

GET /values?readout=IC50&item= "CN(Cc1cc(C#Cc2ccc(CC(=O)O)cc2)cc2c1OC(C)(C)CC2(C)C)C1CC1"
60 nM

GET /values?readout=IC50&item= "C/C(=C\c1ccc(C#Cc2cc(C3CC3)c3c(c2)C(C)(C)CC2(CC2)O3)cc1)C(=O)O"
250 nM

GET /values?readout=IC50&item= "C#Cc1c(C)c(C#Cc2ccc(CC(=O)O)cc2)cc(C(C)(C)C)c1OC(C)C"
700 nM

GET /values?readout=IC50&item= "CCOC(=O)C1=CCC(C)(C)c2cc(C#Cc3ccc(CC(=O)O)cc3)c(C)cc21"
1400 nM

GET /values?readout=IC50&item= "CC(C)c1cc(C(=O)Oc2ccc(/C=C/C(=O)O)cc2)cc2c1OC(C)(C)CC2(C)C"
300 nM

GET /values?readout=IC50&item= CN(C1CC1)C1CCC(C)(C)c2cc(C#Cc3ccc(C(C)(C)C(=O)O)cc3)ccc21 (centres unmarked)
400 nM

GET /values?readout=IC50&item= "CC1(C)CC(C)(C)c2cc(C#Cc3ccc(CC(=O)O)c(F)c3)cc(O)c2O1"
70 nM

GET /values?readout=IC50&item= "CCOC(=O)C1=CCC(C)(C)c2cc(C#Cc3ccc(CC(=O)O)c(F)c3)c(C)cc21"
500 nM

GET /values?readout=IC50&item= "CC(C)OC(=O)c1ccc(C#Cc2ccc(CC(=O)O)c(F)c2)cc1CN(C)C1CC1"
2500 nM

GET /values?readout=IC50&item= "CC1(C)CC(C)(C)c2cc(C#Cc3ccc(C(C)(C)C(=O)O)cc3)cc(O)c2O1"
160 nM

GET /values?readout=IC50&item= CCc1cc(C#Cc2ccc(C(C)(C)C(=O)O)cc2)cc2c1C(N(C)C1CC1)CCC2(C)C (centres unmarked)
200 nM

GET /values?readout=IC50&item= CN(C1CC1)C1CCC(C)(C)c2cc(C#Cc3ccc(C(C)(C)C(=O)O)cc3)cc(C3CC3)c21 (centres unmarked)
100 nM

GET /values?readout=IC50&item= CN(C1CC1)C1CCC(C)(C)c2cc(NC(=O)Nc3ccc(C(=O)O)cc3)ccc21 (centres unmarked)
> 10000 nM

GET /values?readout=IC50&item= "CN(Cc1cc(C#Cc2ccc(CC(=O)O)c(F)c2)cc2c1OC(C)(C)CC2(C)C)C1CC1"
40 nM

GET /values?readout=IC50&item= "CC1(C)CC2(CC2)Oc2c(C3CC3)cc(C#Cc3ccc(C(C)(C)C(=O)O)cc3)cc21"
30 nM

GET /values?readout=IC50&item= "CN(c1cccc(C#Cc2ccc(/C=C/C(=O)O)cc2)c1)C1CC1"
> 10000 nM

GET /values?readout=IC50&item= C=Cc1cc(C#Cc2ccc(CC(=O)O)cc2)cc2c1C(N(C)C1CC1)CCC2(C)C (centres unmarked)
8 nM

GET /values?readout=IC50&item= CCOC(=O)C1CCC(C)(C)c2cc(C#Cc3ccc(CC(=O)O)cc3)c(C)cc21 (centres unmarked)
400 nM

GET /values?readout=IC50&item= "CCOC(=O)C1=C(C)CC(C)(C)c2cc(C#Cc3ccc(CC(=O)O)c(F)c3)ccc21"
1200 nM

GET /values?readout=IC50&item= CC(C(=O)O)c1ccc(C#Cc2cc(C3CC3)c3c(c2)C(C)(C)CCC3N(C)C2CC2)cc1 (centres unmarked)
50 nM

GET /values?readout=IC50&item= "CC(C)OC(=O)c1cc(C#Cc2ccc(CC(=O)O)cc2)cc2c1OC(C)(C)CC2(C)C"
400 nM

GET /values?readout=IC50&item= COc1cc(C#Cc2ccc(C(C)C(=O)O)cc2)cc2c1C(N(C)C1CC1)CCC2(C)C (centres unmarked)
28 nM

GET /values?readout=IC50&item= "CC(C)Oc1cc(C#Cc2ccc(CC(=O)O)cc2)cc2c1OC(C)(C)CC2(C)C"
60 nM

GET /values?readout=IC50&item= "CN(Cc1cccc(C#Cc2ccc(/C=C/C(=O)O)cc2)c1)C1CC1"
> 10000 nM

GET /values?readout=IC50&item= "CC1(C)CC2(CC2)Oc2c(C3CC3)cc(C#Cc3ccc(/C=C(\Cl)C(=O)O)cc3)cc21"
120 nM

GET /values?readout=IC50&item= CC(C)OC(=O)c1ccc(C#Cc2ccc(C(C)C(=O)O)cc2)cc1CN(C)C1CC1 (centres unmarked)
1300 nM

GET /values?readout=IC50&item= "C#Cc1cc(NC(=O)Nc2ccc(C(=O)O)c(F)c2)cc2c1OC(C)(C)CC2(C)C"
> 10000 nM

GET /values?readout=IC50&item= CC(C(=O)O)c1ccc(C#Cc2cc(C3CC3)c3c(c2)C(C)(C)CC2(CC2)O3)cc1 (centres unmarked)
9 nM
